Collected melting point values appear next to each entry.

                           smiles_structure         result
0  O=C(COc1cccc(NC(=O)c2cc(-c3cccc(F)c3)ccc2F)c1)OCCO  135 to 137 °C
1  NC(=O)COc1cccc(NC(=O)c2cc(-c3cccc(F)c3)ccc2F)c1  203 to 206 °C
2  NC(=O)/C=C/c1cccc(NC(=O)c2cc(-c3cccc(F)c3)ccc2F)c1  216 to 218 °C
3  CC(C)OC(=O)/C=C/c1cccc(NC(=O)c2cc(-c3cccc(F)c3)ccc2F)c1  154 to 155 °C
4  COC(=O)COc1cccc(NC(=O)c2cc(-c3cccc(F)c3)ccc2F)c1  103 to 104 °C

Let us move to another entry and its melting point.
// melting point lookup, key: `COC(=O)/C=C/c1cccc(NC(=O)c2cc(-c3cccc(F)c3)ccc2F)c1`
144 to 145 °C
